biological target: NAMPT (Homo sapiens (Human)); test: Biochemical Inhibition Assay (NAMPT enzymatic reaction, NMN quantified by mass spectrometry); settings: recombinant His-tagged NAMPT, 33 nM; 1 μM NAM; read-out: Biochem IC50
Sequence (P43490 whole entry): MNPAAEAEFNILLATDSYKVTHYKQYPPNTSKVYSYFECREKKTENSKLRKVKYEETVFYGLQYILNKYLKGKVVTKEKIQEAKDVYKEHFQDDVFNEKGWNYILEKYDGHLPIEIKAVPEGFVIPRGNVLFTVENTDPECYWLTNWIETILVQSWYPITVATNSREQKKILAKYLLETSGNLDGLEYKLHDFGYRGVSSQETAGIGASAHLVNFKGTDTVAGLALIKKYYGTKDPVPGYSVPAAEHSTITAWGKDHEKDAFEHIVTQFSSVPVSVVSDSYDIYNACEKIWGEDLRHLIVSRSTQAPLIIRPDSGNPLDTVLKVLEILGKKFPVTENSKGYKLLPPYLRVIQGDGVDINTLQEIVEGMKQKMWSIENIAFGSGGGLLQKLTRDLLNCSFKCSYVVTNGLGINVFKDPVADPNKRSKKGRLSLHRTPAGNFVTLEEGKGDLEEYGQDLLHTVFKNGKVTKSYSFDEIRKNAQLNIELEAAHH
Measured pIC50, listed per entry for reference.
API: returns pIC50 as number; meaning -log10 of concentration in mol/L.

| smi | number |
| --- | --- |
| COc1ccc(C)cc1S(=O)(=O)c1ccc(NC(=O)/C=C/c2cccnc2)cc1 | 8.74 |
| CC(C)NC(=O)c1cccc(S(=O)(=O)c2ccc(NC(=O)/C=C/c3cccnc3)cc2)c1 | 7.75 |
| CCOc1cccc(S(=O)(=O)c2ccc(NC(=O)/C=C/c3cccnc3)cc2)c1 | 7.24 |
| CC(C)Oc1cccc(S(=O)(=O)c2ccc(NC(=O)/C=C/c3cccnc3)cc2)c1 | 8.96 |
| O=C(Nc1ccc(S(=O)(=O)c2ccccc2)cc1)/C(F)=C/c1cccnc1 | 8.15 |

Which measured pIC50 value corresponds to "O=C(/C=C/c1cccnc1)Nc1ccc(S(=O)(=O)c2cccc3cccnc23)cc1" ?
8.44

Which measured pIC50 value corresponds to "CCOc1ccc(S(=O)(=O)c2ccc(NC(=O)/C=C/c3cccnc3)cc2)cc1" ?
7.56

Which measured pIC50 value corresponds to "O=C(/C=C/c1cccnc1)Nc1ccc(S(=O)(=O)c2cccnc2)cc1" ?
7.74

Which measured pIC50 value corresponds to "O=C(/C=C/c1cccnc1)Nc1ccc(S(=O)(=O)N2CCC(N3CCOCC3)CC2)cc1" ?
8.00

---

molecular target: NAMPT (Homo sapiens (Human)); test: Biochemical Inhibition Assay (NAMPT enzymatic reaction, NMN quantified by mass spectrometry); details: recombinant His-tagged NAMPT, 33 nM; 1 μM NAM; read-out: Biochem IC50
Measured pIC50, listed per entry for reference.
API: returns pIC50 as number; meaning -log10 of concentration in mol/L.

The following compounds have reported results that may help.
| smi | system_tested | number |
| --- | --- | --- |
| Cc1ccc(S(=O)(=O)c2ccc(NC(=O)/C=C/c3cccnc3)cc2)s1 | NAMPT (Homo sapiens (Human)) | 7.78 |
| O=C(/C=C/c1cccnc1)Nc1ccc(S(=O)(=O)c2ccc3ncccc3c2)cc1 | NAMPT (Homo sapiens (Human)) | 8.27 |
| COc1cc(OC)cc(S(=O)(=O)c2ccc(NC(=O)/C=C/c3cccnc3)cc2)c1 | NAMPT (Homo sapiens (Human)) | 7.69 |
| NS(=O)(=O)c1cccc(S(=O)(=O)c2ccc(NC(=O)/C=C/c3cccnc3)cc2)c1 | NAMPT (Homo sapiens (Human)) | 8.00 |
| CN(C)c1ncc(S(=O)(=O)c2ccc(NC(=O)/C=C/c3cccnc3)cc2)cn1 | NAMPT (Homo sapiens (Human)) | 8.10 |
| Cn1ncc2cccc(S(=O)(=O)c3ccc(NC(=O)/C=C/c4cccnc4)cc3)c21 | NAMPT (Homo sapiens (Human)) | 8.05 |
| Cc1ccc(S(=O)(=O)c2ccc(NC(=O)/C=C/c3cccnc3)cc2)cc1F | NAMPT (Homo sapiens (Human)) | 7.56 |
| COc1ccc(S(=O)(=O)c2ccc(NC(=O)/C=C/c3cccnc3)cc2)cc1OC | NAMPT (Homo sapiens (Human)) | 8.60 |
| COc1c(C)cc(S(=O)(=O)c2ccc(NC(=O)/C=C/c3cccnc3)cc2)cc1C | NAMPT (Homo sapiens (Human)) | 8.17 |
| CCCn1cc(S(=O)(=O)c2ccc(NC(=O)/C=C/c3cccnc3)cc2)cn1 | NAMPT (Homo sapiens (Human)) | 8.59 |

Please state recorded pIC50 (tested on NAMPT (Homo sapiens (Human))) of "O=C(/C=C/c1cccnc1)Nc1ccc(S(=O)(=O)c2cccc(C(F)(F)F)c2)cc1"
7.50

Please state recorded pIC50 (tested on NAMPT (Homo sapiens (Human))) of "COc1ccccc1S(=O)(=O)c1ccc(NC(=O)/C=C/c2cccnc2)cc1"
8.11

Please state recorded pIC50 (tested on NAMPT (Homo sapiens (Human))) of "O=C(/C=C/c1cccnc1)Nc1ccc(S(=O)(=O)Nc2ccccc2OC(F)(F)F)cc1"
6.43

Please state recorded pIC50 (tested on NAMPT (Homo sapiens (Human))) of "O=C(/C=C/c1cccnc1)Nc1ccc(S(=O)(=O)c2ccc(N3CCOCC3)cc2)cc1"
7.61

Please state recorded pIC50 (tested on NAMPT (Homo sapiens (Human))) of "COCc1cccc(S(=O)(=O)c2ccc(NC(=O)/C=C/c3cccnc3)cc2)c1"
8.11

Please state recorded pIC50 (tested on NAMPT (Homo sapiens (Human))) of "CCNC(=O)c1ccc(S(=O)(=O)c2ccc(NC(=O)/C=C/c3cccnc3)cc2)cc1"
7.83

Data credit: patent US9169209B2
